Measured EC50, listed per entry for reference.
Test system: HCV Replicon IB
method.summary: HCV replicon assay in Huh-7 cells, genotype 1b (Rluc luciferase readout)
Assay type: cell-based, hepatitis C virus
condition.info: Hepatitis C virus, Huh-7, 72 h, HCV1B replicon, Huh-7 cells, 3 days; read-out: EC50_HCV1B_
Numbers only; they are read as nM.

{"compound": "Cc1cc(-c2nnc(NCC3OCCO3)o2)nc2c(C(C)(C)O)cc(C3CC3)cc12", "EC50 / nM": 43.8}
{"compound": "Cc1cc(-c2nnc(Nc3ccccn3)o2)nc2c(C(C)(C)C)cc(OCC(F)(F)F)cc12", "EC50 / nM": 0.83}
{"compound": "CCO[C@H]1CN[C@H](CNC(=O)c2cc(N)c3cc(C4CC4)cc(C(C)(C)C)c3n2)C1", "EC50 / nM": 19.8}
{"compound": "Cc1cc(-c2nnc(NCC3OCCO3)o2)nc2c(OC(F)(F)F)cc(OCC(F)(F)F)cc12", "EC50 / nM": 4.12}

Case Cc1cc(-c2nnc(NCCCO)s2)nc2c(C(C)(C)C)cc(C3CC3)cc12 , HCV Replicon IB, EC50 recorded as 12.7
